For reference, pKi measured on Mu-type opioid receptor (Rattus norvegicus):
pKi: −log10 of the molar value. Starred links: 1 amine or outer side, 2 acyl side, 3 side chain; linkers in the order of their positions; H or OH if unused. Non-standard residues stand in square brackets, D forms with d. Residues, ends and D or L forms follow the SMILES beside them. X1 = CSCC[C@H](CN([C@@H](Cc1ccccc1)C(=O)[*:2])[*:1])N[*:3]; Tle = CC(C)(C)[C@H](N)C(=O)O; NBuGly = CCCCNCC(=O)O
readoutKind: pKi

CSCC[C@H](NC(=O)[C@@H](NC(=O)[C@H](Cc1c[nH]cn1)NC(=O)[C@H](Cc1ccccc1)NC(=O)[C@@H](CCSC)NC(=O)[C@@H](N)Cc1ccc(O)cc1)C(C)(C)C)C(=O)N[C@@H](CC(=O)O)C(N)=O	6.42
CCCCN(CC(=O)N[C@@H](CC(=O)O)C(N)=O)C(=O)[C@H](CC(C)C)NC(=O)[C@H](Cc1cnc[nH]1)NC(=O)[C@H](Cc1ccccc1)NC[C@@H](CCSC)NC(=O)[C@@H](N)Cc1ccc(O)cc1 (H-[X1](Tyr)HL[NBuGly]D-NH2)	6.84
CSCC[C@@H](NC(=O)[C@@H](N)Cc1ccc(O)cc1)C(=O)N[C@@H](Cc1ccccc1)C(=O)N[C@@H](Cc1c[nH]cn1)C(=O)N[C@@H](CC(C)C)C(=O)N[C@H](C(=O)N[C@@H](CC(=O)O)C(N)=O)C(C)(C)C	6.57
CC[C@H](C)N(CC(=O)N[C@@H](CC(=O)O)C(N)=O)C(=O)[C@H](CC(C)C)NC(=O)[C@H](Cc1c[nH]cn1)NC(=O)[C@H](Cc1ccccc1)NC(=O)[C@@H](CCSC)NC(=O)[C@@H](N)Cc1ccc(O)cc1 (stereo in doubt; 6a)	6.07
CSCC[C@@H](NC(=O)[C@@H](N)Cc1ccc(O)cc1)C(=O)N[C@@H](Cc1ccccc1)C(=O)N[C@@H](Cc1c[nH]cn1)C(=O)N[C@@H](CC(C)C)C(=O)N(CC(=O)N[C@@H](CC(=O)O)C(N)=O)CC(C)C	7.24
CC[C@H](C)N(CC(=O)N[C@@H](CC(=O)O)C(N)=O)C(=O)[C@H](CC(C)C)NC(=O)[C@H](Cc1c[nH]cn1)NC(=O)[C@H](Cc1ccccc1)NC(=O)[C@@H](CCSC)NC(=O)[C@@H](N)Cc1ccc(O)cc1 (stereo in doubt; 6b)	6.10
CSCC[C@H](NC(=O)[C@H](CC(C)C)NC(=O)[C@H](Cc1cnc[nH]1)NC(=O)[C@H](Cc1ccccc1)NC(=O)[C@@H](CCSC)NC(=O)[C@@H](N)Cc1ccc(O)cc1)C(=O)N[C@@H](CC(=O)O)C(N)=O (H-Y[dM]FHLMD-NH2)	6.66
CCCCN(CC(=O)N[C@@H](CC(=O)O)C(N)=O)C(=O)[C@@H](NC(=O)[C@H](Cc1cnc[nH]1)NC(=O)[C@H](Cc1ccccc1)NC[C@@H](CCSC)NC(=O)[C@@H](N)Cc1ccc(O)cc1)C(C)(C)C (H-[X1](Tyr)H[Tle][NBuGly]D-NH2)	6.80
CSCC[C@H](NC(=O)[C@H](C)NC(=O)[C@H](Cc1c[nH]cn1)NC(=O)[C@H](Cc1ccccc1)NC(=O)[C@@H](CCSC)NC(=O)[C@@H](N)Cc1ccc(O)cc1)C(=O)N[C@@H](CC(=O)O)C(N)=O	6.88
CCCCN(CC(=O)N[C@@H](CC(=O)O)C(N)=O)C(=O)[C@@H](NC(=O)[C@H](Cc1c[nH]cn1)NC(=O)[C@H](Cc1ccccc1)NC(=O)[C@@H](CCSC)NC(=O)[C@@H](N)Cc1ccc(O)cc1)C(C)(C)C	6.82
CCCCN(CC(=O)N[C@@H](CC(=O)O)C(N)=O)C(=O)[C@H](CC(C)C)NC(=O)[C@H](Cc1c[nH]cn1)NC(=O)[C@H](Cc1ccccc1)NC(=O)[C@@H](CCSC)NC(=O)[C@@H](N)Cc1ccc(O)cc1	6.09

Recorded values, source ChEMBL document CHEMBL1128603.
